Ref: patent US7332476B2

System: Streptococcus pyogenes Stpy_8668
Test: MIC, broth microdilution (NCCLS)
Type: cell-based
Set-up: unit not given beside the values
Conditions: strain ID G; broth microdilution
valueKind: MIC, strain ID G

molecule: CC[C@H]1OC(=O)[C@H](C)C(=O)[C@H](C)[C@@H](O[C@@H]2O[C@H](C)C[C@H](N(C)C)[C@H]2O)[C@](C)(OC)C[C@@H](C)C(=O)[C@H](C)[C@H]2N(CCCCn3cnc(-c4cccnc4)c3)C(=O)O[C@]12C [Telithromycin, telithromycin, reference compound]
result: =0.05
//
molecule: C#C[C@]12OC(=O)N(CCCCn3cnc(-c4ccc(Cl)nc4)c3)[C@@H]1[C@@H](C)C(=O)[C@H](C)C[C@](C)(OC)[C@H](OC1O[C@H](C)C[C@H](N(C)C)[C@H]1O)[C@@H](C)C(=O)[C@@H](C)C(=O)O[C@@H]2CC (stereo partly drawn)
result: =0.05
//
molecule: C=C[C@]12OC(=O)N(CCCCn3cnc(-c4cnccc4OC)c3)[C@@H]1[C@@H](C)C(=O)[C@H](C)C[C@](C)(OC)[C@H](OC1O[C@H](C)C[C@H](N(C)C)[C@H]1O)[C@@H](C)C(=O)[C@@H](C)C(=O)O[C@@H]2CC (stereo partly drawn)
result: =0.05

----------
# MIC per record follows
Test system: Streptococcus pneumoniae Stpn_Mef S 3427
Test: MIC, broth microdilution (NCCLS)
Format: cell-based
Settings: Table 10, Strain ID Q (Table 8): Streptococcus pneumoniae Stpn_Mef S 3427; in µg/mL (unit assumed)
Procedure: Strains. The bacterial isolates listed in Table 4 were cultivated from −70° C. frozen stocks by two consecutive overnight passages (P1, P2) at 35° C. on 5% blood agar (Remel, Lenexa, Kans.). Chocolate agar (Remel) is used for Haemophilus influenzae. H. influenzae and Streptococcus pneumoniae are incubated in 5-10% CO2 Drug Stock Preparation. […] Susceptibility Testing. MICs are determined by the broth microdilution method in accordance with the NCCLS guidelines. […]
When you answer, write just the number.

These recorded examples may help you get a feel for the data.
molecule: CC[C@H]1OC(=O)[C@H](C)C(=O)[C@H](C)[C@@H](OC2O[C@H](C)C[C@H](N(C)C)[C@H]2O)[C@@](C)(OC)C[C@@H](C)C(=O)[C@H](C)[C@H]2N(CCCCn3cnc(-c4ccc(F)nc4)c3)C(=O)O[C@]12CC (stereo partly shown) [XV]
MIC: 0.1

molecule: C=C[C@]12OC(=O)N(CCCCn3cc(-c4ccc(OC)nc4)nc3C)[C@@H]1[C@@H](C)C(=O)[C@H](C)C[C@](C)(OC)[C@H](OC1O[C@H](C)C[C@H](N(C)C)[C@H]1O)[C@@H](C)C(=O)[C@@H](C)C(=O)O[C@@H]2CC (stereo partly shown) [XXVII]
MIC: 0.2

molecule: C=C[C@]12OC(=O)N(CCCCn3cnc(-c4ccc(OC)nc4)c3C)[C@@H]1[C@@H](C)C(=O)[C@H](C)C[C@](C)(OC)[C@H](OC1O[C@H](C)C[C@H](N(C)C)[C@H]1O)[C@@H](C)C(=O)[C@@H](C)C(=O)O[C@@H]2CC (stereo partly shown) [XXVI]
MIC: 0.2

molecule: CC[C@H]1OC(=O)[C@H](C)C(=O)[C@H](C)[C@@H](OC2O[C@H](C)C[C@H](N(C)C)[C@H]2O)[C@@](C)(OC)C[C@@H](C)C(=O)[C@H](C)[C@H]2N(CCCCn3cnc(-c4ccc(C)nc4)c3)C(=O)O[C@]12CC (stereo partly shown) [XIII]
MIC: 0.2

Any idea what MIC was measured for CC[C@H]1OC(=O)[C@H](C)C(=O)[C@H](C)[C@@H](OC2O[C@H](C)C[C@H](N(C)C)[C@H]2O)[C@@](C)(OC)C[C@@H](C)C(=O)[C@H](C)[C@H]2N(CCCCn3cnc(-c4ccc(Cl)nc4)c3)C(=O)O[C@]12CC (stereo partly shown) [XXI] ? 0.2

----------
System: Enterococcus faecalis Enfa_29212
Assay: MIC, broth microdilution (NCCLS)
Assay type: cell-based
Details: Table 5, Strain ID C (Table 4): E. faecalis Enfa_29212; in µg/mL (unit assumed)
valueKind: MIC
When you answer, write just the number.

compound: CC[C@H]1OC(=O)[C@H](C)C(=O)[C@H](C)[C@@H](OC2O[C@H](C)C[C@H](N(C)C)[C@H]2O)[C@@](C)(OC)C[C@@H](C)C(=O)[C@H](C)[C@H]2N(CCCCn3cnc(-c4ccccc4)c3)C(=O)O[C@]12CC (some centres unmarked)
measuredTarget: Enterococcus faecalis Enfa_29212
MIC: 0.1

Any idea what MIC was measured for CC[C@H]1OC(=O)[C@H](C)C(=O)[C@H](C)[C@@H](OC2O[C@H](C)C[C@H](N(C)C)[C@H]2O)[C@@](C)(OC)C[C@@H](C)C2=N[C@@H](C)CN3C(=O)O[C@H]1[C@H]3[C@H]2C (some centres unmarked) ? 0.78

----------
Tested on: Streptococcus pyogenes Stpy_8668
Assay: MIC, broth microdilution (NCCLS)
Type: cell-based
Details: Table 5, Strain ID D (Table 4): S. pyogenes Stpy_8668; unit assumed
valueKind: MIC (µg/mL)
Write the number in µg/mL without appending the unit.

compound: CC[C@H]1OC(=O)[C@H](C)C(=O)[C@H](C)[C@@H](OC2O[C@H](C)C[C@H](N(C)C)[C@H]2O)[C@@](C)(OC)C[C@@H](C)C(=O)[C@H](C)[C@@H]2[C@@H]1OC(=O)N2CCCn1cnc(-c2ccccc2)c1 (some centres unmarked) [Compound 4714]
measuredTarget: Streptococcus pyogenes Stpy_8668
readoutUnits: µg/mL
number: 0.1
//
compound: CC[C@H]1OC(=O)[C@H](C)C(=O)[C@H](C)[C@@H](OC2O[C@H](C)C[C@H](N(C)C)[C@H]2O)[C@@](C)(OC)C[C@@H](C)C(=O)[C@H](C)[C@H]2NC(=O)O[C@@H]21 (some centres unmarked) [Compound 4266]
measuredTarget: Streptococcus pyogenes Stpy_8668
readoutUnits: µg/mL
number: 0.1
//
compound: CC[C@H]1OC(=O)[C@H](C)C(=O)[C@H](C)[C@@H](OC2O[C@H](C)C[C@H](N(C)C)[C@H]2O)[C@@](C)(OC)C[C@@H](C)C2=NCCN3C(=O)O[C@H]1[C@H]3[C@H]2C (some centres unmarked) [Compound 6222]
measuredTarget: Streptococcus pyogenes Stpy_8668
readoutUnits: µg/mL
number: 0.2
//
compound: CC[C@H]1OC(=O)[C@H](C)C(=O)[C@H](C)[C@@H](OC2O[C@H](C)C[C@H](N(C)C)[C@H]2O)[C@@](C)(OC)C[C@@H](C)C(=O)[C@H](C)[C@@H]2[C@@H]1OC(=O)N2CCCn1cnc2cccnc21 (some centres unmarked) [Compound 4716]
measuredTarget: Streptococcus pyogenes Stpy_8668
readoutUnits: µg/mL
number: 0.1

Any idea what MIC was measured for CC[C@H]1OC(=O)[C@H](C)C(=O)[C@H](C)[C@@H](OC2O[C@H](C)C[C@H](N(C)C)[C@H]2O)[C@@](C)(OC)C[C@@H](C)C2=N[C@@H](C)CN3C(=O)O[C@H]1[C@H]3[C@H]2C (some centres unmarked) [Compound 6223] ? 0.2

----------
# log10(MIC) per record follows
System: Haemophilus influenzae Hain_49247
Experiment: MIC, broth microdilution (NCCLS)
Type: cell-based
Settings: Table 7, Strain ID M (Table 6): H. influenzae Hain_49247; unit assumed
Recall that a logarithmic scale is used here: each number is log10 of MIC in µg/mL.

These recorded examples may help you get a feel for the data.
molecule: C=C[C@]12OC(=O)N(CCCCn3cnc(-c4cccnc4)c3)[C@@H]1[C@@H](C)C(=O)[C@H](C)C[C@](C)(OC)[C@H](OC1O[C@H](C)C[C@H](N(C)C)[C@H]1O)[C@@H](C)C(=O)[C@@H](C)C(=O)O[C@@H]2CC (stereo partly shown)
number: 0.50
//
molecule: CC[C@H]1OC(=O)[C@H](C)C(=O)[C@H](C)[C@@H](OC2O[C@H](C)C[C@H](N(C)C)[C@H]2O)[C@@](C)(OC)C[C@@H](C)C(=O)[C@H](C)[C@H]2N(CCCCc3ccnc4ccccc34)C(=O)O[C@]12CC (stereo partly shown)
number: 0.50
//
molecule: CCC1OC(=O)C(C)C(=O)C(C)C(OC2OC(C)CC(N(C)C)C2O)C(C)(OC)CC(C)C(=O)C(C)C2C1OC(=O)N2CCCCc1ncc(-c2cccc(N)c2)s1 (stereo not shown) [Compound 20v]
number: 0.80
//
molecule: CCC1OC(=O)C(C)C(=O)C(C)C(OC2OC(C)CC(N(C)C)C2O)C(C)(OC)CC(C)C(=O)C(C)C2C1OC(=O)N2CCCCc1cc(C)nc2ccccc12 (stereo not shown) [Compound 20o]
number: 0.50
//
molecule: CCC1OC(=O)C(C)C(=O)C(C)C(OC2OC(C)CC(N(C)C)C2O)C(C)(OC)CC(C)C(=O)C(C)C2C1OC(=O)N2CCCCn1ccc2ncccc21 (stereo not shown) [Compound 20m]
number: 0.19
//
molecule: CC[C@H]1OC(=O)[C@@](C)(F)C(=O)[C@H](C)[C@@H](OC2O[C@H](C)C[C@H](N(C)C)[C@H]2O)[C@@](C)(OC)C[C@@H](C)C(=O)[C@H](C)[C@H]2N(CCCC(C)(C)n3cnc4cccnc43)C(=O)O[C@]12CC (stereo partly shown)
number: 0.80
//
molecule: CCC1OC(=O)C(C)C(=O)C(C)C(OC2OC(C)CC(N(C)C)C2O)C(C)(OC)CC(C)C(=O)C(C)C2C1OC(=O)N2CCCCc1cc(C(F)(F)F)nc2ccccc12 (stereo not shown) [Compound 20p]
number: 0.80
//
molecule: CCC1OC(=O)C(C)C(=O)C(C)C(OC2OC(C)CC(N(C)C)C2O)C(C)(OC)CC(C)C(=O)C(C)C2C1OC(=O)N2CCCOc1ccc(-c2cccnc2)cc1 (stereo not shown) [Compound 20r]
number: 1.70

Any idea what log10(MIC) was measured for CCC1OC(=O)C(C)C(=O)C(C)C(OC2OC(C)CC(N(C)C)C2O)C(C)(OC)CC(C)C(=O)C(C)C2C1OC(=O)N2CCCOc1cccc(-c2cccnc2)c1 (stereo not shown) [Compound 20s] ? 0.50

Any idea what log10(MIC) was measured for CCC1OC(=O)C(C)C(=O)C(C)C(OC2OC(C)CC(N(C)C)C2O)C(C)(OC)CC(C)C(=O)C(C)C2C1OC(=O)N2CCCCc1ccnc2c(C(F)(F)F)cccc12 (stereo not shown) [Compound 20q] ? 1.10
